Value source: ChEMBL document CHEMBL1148724

Biological target: Serine/threonine-protein kinase Chk1 (Homo sapiens)
Sequence (O14757 whole entry): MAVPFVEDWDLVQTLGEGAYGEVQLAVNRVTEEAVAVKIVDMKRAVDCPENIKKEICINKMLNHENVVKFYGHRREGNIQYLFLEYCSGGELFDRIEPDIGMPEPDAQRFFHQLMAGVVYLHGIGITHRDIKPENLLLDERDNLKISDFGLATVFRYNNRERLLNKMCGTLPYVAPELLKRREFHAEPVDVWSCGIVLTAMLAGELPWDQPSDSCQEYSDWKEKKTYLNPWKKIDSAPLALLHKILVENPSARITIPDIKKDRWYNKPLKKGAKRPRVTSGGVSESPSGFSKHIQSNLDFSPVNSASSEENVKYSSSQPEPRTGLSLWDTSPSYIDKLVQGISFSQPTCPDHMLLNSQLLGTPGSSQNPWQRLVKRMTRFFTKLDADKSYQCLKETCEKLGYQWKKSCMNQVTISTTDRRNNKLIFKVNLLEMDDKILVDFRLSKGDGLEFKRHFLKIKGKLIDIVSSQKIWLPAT
Assay: Inhibition of human recombinant Chk1
pIC50: −log10 of the molar value.
READOUT_LABEL: pIC50

CCOc1cccc(-c2ccc3c(c2)Nc2ccccc2NC3=O)c1 ... < 5.00
O=C1Nc2ccccc2C(O)c2ccccc21 (stereo unspecified) ... < 4.30
COc1cc(-c2ccc3c(c2)C(=O)Nc2ccccc2N3)ccc1O ... < 5.00
CC(=O)c1ccc(-c2ccc3c(c2)Nc2ccccc2NC3=O)cc1 ... < 5.00
N#Cc1ccc(-c2ccc3c(c2)Nc2ccccc2NC3=O)cc1 ... < 5.00
O=C1Nc2ccccc2S(=O)(=O)c2ccccc21 ... < 4.30
